biological target: MASP-2 CCP2-SP (Homo sapiens (Human), UniProt O00187); assay: MASP-2 co-crystallization, X-ray crystallography and structure analysis (H-bonds, van der Waals contacts); conditions: Table A2 section before Table A2-8
Sequence (O00187 445-686): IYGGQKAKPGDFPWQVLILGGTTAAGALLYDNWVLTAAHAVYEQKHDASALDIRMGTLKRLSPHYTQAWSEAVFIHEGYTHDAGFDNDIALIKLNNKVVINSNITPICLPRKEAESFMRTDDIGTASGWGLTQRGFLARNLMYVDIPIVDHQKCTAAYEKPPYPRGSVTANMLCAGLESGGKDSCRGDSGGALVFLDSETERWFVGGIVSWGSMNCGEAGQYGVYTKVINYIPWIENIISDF
Sequence (O00187 364-432 partner): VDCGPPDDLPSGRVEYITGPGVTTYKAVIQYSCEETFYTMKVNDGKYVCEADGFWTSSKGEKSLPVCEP
Counter-ions that a name gives are not always drawn.
// van der Waals contact distance, MASP-2 amino acid atom to compound atom lookup, one value per entry
Property label: van der Waals contact distance, MASP-2 amino acid atom to compound atom

1. Cc1cccc([C@H]2CN[C@@H](C(=O)N[C@@H](C)C(=O)NCc3ccc(N)nc3C)C2)c1 [compound 1257, Dihydrochloride] ... 3.86
2. C[C@H](NC(=O)[C@H]1C[C@H](Cc2ccccc2)CN1)C(=O)NCc1cc(Cl)ccc1-n1cnnn1 [compound 1371, Hydrochloride] ... 3.76
3. Cc1nc(N)ccc1CNC(=O)[C@H](C)NC(=O)[C@H]1C[C@H](Cc2cc(-c3ccccc3)cs2)CN1 [compound 1399, Dihydrochloride] ... 3.81
4. Cc1nc(N)ccc1CNC(=O)[C@H](C)NC(=O)[C@H]1C[C@H](Cc2ccccc2-c2ccccc2)CN1 [compound 1373, Di-trifluoroacetate salt] ... 3.83
5. C[C@H](NC(=O)[C@@H](CCc1ccccc1)NCCCc1ccc(O)cc1)C(=O)NCc1ccc(C(=N)N)cc1 [compound 1145] ... 3.85
6. Cc1cnc(NCCc2ccccc2)c(=O)n1CC(=O)NCc1ccc2nc(N)[nH]c2c1 [compound 1492] ... 3.86
7. C[C@H](NC(=O)[C@H]1C[C@@H](c2ccccc2)CCN1)C(=O)NCc1ccc(N)nc1 (stereo in doubt) [compound 1025] ... 3.84
8. Cc1nc(N)ccc1CNC(=O)[C@H](C)NC(=O)[C@H]1C[C@H](Cc2ccccc2)CN1 [compound 1304] ... 3.81
9. O=c1oc(-c2ccccc2[N+](=O)[O-])nc2ccccc12 [compound 14] ... 3.89

----------
Biological target: MASP-2 CCP2-SP (Homo sapiens (Human))
Assay: MASP-2 co-crystallization, X-ray crystallography and structure analysis (H-bonds, van der Waals contacts)
Conditions: Table A4-1; element C2
Source text: This example illustrates the preparation of recombinant MASP-2 protein, based on UniProt O00187, human mannan-binding lectin serine protease 2. Expression constructs for human MASP-2 CCP2-SP and CCP2-SP-6HIS were generated for recombinant expression in E. coli cells. […]
Structures can show the parent of a compound that is named as a salt.
// Ligand-pharmacophore element distance, pharmacophore element C2 lookup, one value per entry
Property label: Ligand-pharmacophore element distance, pharmacophore element C2

1) Cc1nc(N)ccc1CNC(=O)[C@H](C)NC(=O)[C@H]1C[C@H](Cc2ccccc2Br)CN1.O=C(O)C(F)(F)F.O=C(O)C(F)(F)F [1372_A] ... 0
2) Cc1nc(N)ccc1CNC(=O)[C@H](C)NC(=O)[C@H]1C[C@H](Cc2cc(Cl)cc(Cl)c2)CN1 [compound 1435, Dihydrochloride] ... 0
3) C[C@H](NC(=O)[C@H]1C[C@@H](c2ccccc2)CCN1)C(=O)NCc1cc(Cl)ccc1O.Cl [1078_8] ... 0.85
4) O=c1oc(-c2ccccc2[N+](=O)[O-])nc2ccccc12 ... 0
5) C[C@H](NC(=O)[C@H]1C[C@@H](c2ccccc2)CCN1)C(=O)NCc1cnc2[nH]cc(Cl)c2c1 ... 0.26
6) C[C@H](NC(=O)[C@H]1Cc2c([nH]c3ccccc23)CN1)C(=O)NCc1ccc(C(=N)N)cc1.Cl.Cl [1097_1] ... 0.69
7) Cc1nc(N)ccc1CNC(=O)[C@H](C)NC(=O)[C@H]1C[C@@H](c2cccc3ccccc23)CCN1.Cl.Cl [1297_5] ... 0.24
8) C[C@H](NC(=O)[C@@H](CCc1ccccc1)NCc1ccc(N2CCOCC2)cc1)C(=O)NCc1ccc(C(=N)N)cc1 ... 0
9) Cc1cnc(NCCc2ccccc2)c(=O)n1CC(=O)NCc1ccc2nc(N)[nH]c2c1 ... 2.91
10) CNC(=O)c1ccc2c(=O)n(Cc3ccccc3)c(=O)n(CC(=O)NCc3ccc(C(=N)N)cc3)c2c1 ... 0
11) C[C@H](NC(=O)[C@H]1C[C@H](Cc2ccccc2)CN1)C(=O)NCc1cc(Cl)ccc1-n1cnnn1 [compound 1371, Hydrochloride] ... 0
12) Cc1nc(N)ccc1CNC(=O)[C@H](C)NC(=O)[C@H]1C[C@H](Cc2cccc(Cl)c2)CN1.Cl.Cl [1328_2] ... 0
13) C[C@H](NC(=O)[C@H]1C[C@@H](c2ccccc2)CN1)C(=O)NCc1ccc2c(N)nccc2c1.Cl.Cl [1089_B] ... 0
14) C[C@H](NC(=O)[C@H](N)C1Cc2ccccc2C1)C(=O)NCc1ccc2nc(N)[nH]c2c1 ... 1.86
15) C[C@H](NC(=O)[C@H]1C[C@@H](c2ccccc2)CN1)C(=O)NCc1ccc2c(N)nccc2c1.Cl.Cl [1089_A] ... 0
